- subject_of_test: HPK1 protein (Homo sapiens)
- Construct: host or cells: human PBMC (CD4+ and CD8+ T cells gated in the FACS assay)
- method: HPK1 Protein Degradation Assay in Human PBMC (Western Blot)
- Assay type: cell-based
- condition_details: 24 h compound incubation
attribute_measured: Protein degradation DC90 (nM)

1. Cc1cc(-c2c[nH]c3ncc(-c4cc(C)c5c(c4)CCN(CCC(=O)NC4CCN(c6ccc(N7CCC(=O)NC7=O)cc6)CC4)C5)nc23)ccc1C(=O)N(C)C [Example 4]    817
2. Cc1cc(-c2c[nH]c3ncc(-c4cc(C)c5c(c4)CCN(CCC(=O)NCC4CCN(c6ccc(C7CCC(=O)NC7=O)cc6)CC4)C5)nc23)ccc1C(=O)N(C)C (stereo not shown) [Example 2]    294

A: Cc1cc(-c2c[nH]c3ncc(-c4cc(C)c5c(c4)CCN(CCC(=O)N4CCN(c6ccc(N7CCC(=O)NC7=O)cc6)CC4)C5)nc23)ccc1C(=O)N(C)C [Example 3]
B: Cc1cc(-c2c[nH]c3ncc(-c4cc(C)c5c(c4)CCN(CCNC(=O)C4CCN(c6ccc7c(c6)C(=O)N(C6CCC(=O)NC6=O)C7=O)CC4)C5)nc23)ccc1C(=O)N(C)C (stereo not shown) [Example 1]
Which record shows the lower Protein degradation DC90: the first, A , or the second, B ? Write down the label attached to your selection. A
(A: 215 nM, B: 3805 nM)

* * *

- subject_of_test: HPK1 protein (Homo sapiens, UniProt Q92918)
- Construct: host or cells: human PBMC (CD4+ and CD8+ T cells gated in the FACS assay)
- Sequence (Q92918 whole entry): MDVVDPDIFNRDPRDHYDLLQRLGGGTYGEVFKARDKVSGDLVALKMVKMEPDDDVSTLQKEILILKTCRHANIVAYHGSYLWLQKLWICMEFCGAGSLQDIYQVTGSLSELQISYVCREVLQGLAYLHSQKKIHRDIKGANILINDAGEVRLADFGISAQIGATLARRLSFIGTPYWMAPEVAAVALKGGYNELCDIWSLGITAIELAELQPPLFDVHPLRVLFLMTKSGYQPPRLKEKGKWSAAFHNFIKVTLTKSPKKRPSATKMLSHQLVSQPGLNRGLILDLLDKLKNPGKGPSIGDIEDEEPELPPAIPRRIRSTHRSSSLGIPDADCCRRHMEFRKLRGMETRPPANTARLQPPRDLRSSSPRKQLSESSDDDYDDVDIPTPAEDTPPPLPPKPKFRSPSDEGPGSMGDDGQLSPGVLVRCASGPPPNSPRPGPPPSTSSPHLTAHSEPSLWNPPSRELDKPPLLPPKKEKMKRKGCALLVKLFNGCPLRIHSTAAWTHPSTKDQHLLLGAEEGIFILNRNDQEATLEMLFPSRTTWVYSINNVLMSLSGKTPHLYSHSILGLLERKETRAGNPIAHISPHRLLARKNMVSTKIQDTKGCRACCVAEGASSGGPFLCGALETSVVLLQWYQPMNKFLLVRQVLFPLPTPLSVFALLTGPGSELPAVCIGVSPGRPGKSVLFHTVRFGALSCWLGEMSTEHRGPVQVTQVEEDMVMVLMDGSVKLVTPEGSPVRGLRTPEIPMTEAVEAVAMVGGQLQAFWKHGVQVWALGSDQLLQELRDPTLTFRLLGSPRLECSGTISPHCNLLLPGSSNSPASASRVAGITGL
- method: HPK1 Protein Degradation Assay in Human PBMC (FACS)
- Assay type: cell-based
- condition_details: CD8+ T Cells, 24 h compound treatment, read-out: Protein degradation Dmax, CD8+ T Cells
- Method: HPK1 Protein Degradation Assay in Human PBMC (FACS) Human PBMCs (AllCells) was used in this study. Cells were thawed one day in advance and maintained in RPMI-1640 supplemented 10% fetal bovine serum (Thermo Fisher), 50 units/mL penicillin and streptomycin (Thermo Fisher) and the mixture was kept at 37° C. in a humidified atmosphere air containing 5% CO2. […] After washed with FACS buffer twice, the signals were detected by BD FACS Celesta. The data were analyzed by Excel and GraphPad Prism 8.
attribute_measured: Dmax (%)

1. Cc1cc(-c2cnc3[nH]cc(-c4ccc(C(=O)N(C)C[C@H](C)O)cc4)c3n2)cc2c1CN(CCC(=O)N1CCN(c3ccc(N4CCC(=O)NC4=O)cc3)CC1)CC2    95
2. Cc1cc(-c2cnc3[nH]cc(-c4ccc(C(=O)N(C)C)cc4)c3c2)cc2c1CN(CCC(=O)N1CCN(c3ccc(N4CCC(=O)NC4=O)cc3)CC1)CC2    96
3. Cc1cc(-c2cnc3[nH]cc(-c4ccc(C(=O)N(C)C)cc4)c3n2)cc2c1CN(CCC(=O)N1CCN(c3ccc(N4CCC(=O)NC4=O)cc3)CC1)CC2    96
4. Cc1cc(-c2cnc3[nH]cc(-c4ccc(C(=O)N(C)C[C@H](C)O)cc4)c3c2)cc2c1CN(CCC(=O)N1CCN(c3ccc(N4CCC(=O)NC4=O)cc3)CC1)CC2    95

* * *

pIC50: −log10 of the molar value.
Parameter pIC50, tested on HPK1 kinase (aa1-346, Life Technologies) (Homo sapiens, UniProt Q92918), listed per item.
Sequence (Q92918 1-346): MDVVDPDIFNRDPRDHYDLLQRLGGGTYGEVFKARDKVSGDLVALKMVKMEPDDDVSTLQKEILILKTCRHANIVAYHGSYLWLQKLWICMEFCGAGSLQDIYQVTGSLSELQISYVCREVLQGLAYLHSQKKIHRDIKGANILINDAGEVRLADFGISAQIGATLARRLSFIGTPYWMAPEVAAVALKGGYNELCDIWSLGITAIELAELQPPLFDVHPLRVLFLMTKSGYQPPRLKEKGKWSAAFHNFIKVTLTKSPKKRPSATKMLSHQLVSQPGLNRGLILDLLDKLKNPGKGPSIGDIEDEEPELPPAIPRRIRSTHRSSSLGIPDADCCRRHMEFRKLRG
attribute_measured: pIC50

a: Cc1cc(-c2c[nH]c3ncc(-c4cc(C)c5c(c4)CCN(CCC(=O)N4CCN(c6ccc(N7CCC(=O)NC7=O)cc6)CC4)C5)nc23)ccc1C(=O)N(C)C [Example 3]
b: Cc1cc(-c2cnc3[nH]cc(-c4ccc(C(=O)N(C)C)cc4)c3n2)cc2c1CN(CCC(=O)N1CCN(c3ccc(N4CCC(=O)NC4=O)cc3)CC1)CC2 [Example 5]
Which has the higher pIC50, a or b ? Write down the label attached to your selection. b

1: Cc1cc(-c2c[nH]c3ncc(-c4cc(C)c5c(c4)CCN(CCNC(=O)C4CCN(c6ccc7c(c6)C(=O)N(C6CCC(=O)NC6=O)C7=O)CC4)C5)nc23)ccc1C(=O)N(C)C (stereo not shown) [Example 1]
2: Cc1cc(-c2c[nH]c3ncc(-c4cc(C)c5c(c4)CCN(CCNC(=O)CC4CCN(c6ccc(C7CCC(=O)NC7=O)cc6)CC4)C5)nc23)ccc1C(=O)N(C)C (stereo not shown) [Example 8]
Which record shows the lower pIC50: the first, 1 , or the second, 2 ? Write down the label attached to your selection. 2
(2: 6.53, 1: 6.92)
